test system: human APOE RNA; assay: Activity in APOE C57BL/6NTac-Apoeem7250 knock-in mice, single ICV bolus, 16 weeks (Example 12); format: in vivo; settings: spinal cord; single ICV bolus 300 μg; 16 weeks post treatment; normalized to mouse Ppia
Strand notation (5' to 3'): a small letter for the sugar, then the base; units joined by * are phosphorothioate-linked, units joined directly phosphodiester-linked; [ ] holds rarer units or linkages, { } end groups; capitals alone tell only the bases. [ms] = mesyl phosphoramidate linkage; e = 2'-O-(2-methoxyethyl) (MOE); k = constrained ethyl (cEt); [5mC] = 5-methylcytosine; d = 2'-deoxy (DNA)
# key: entry, value: APOE RNA (% control) Spinal Cord
Provide only the numeric value, understood in % control.

Exercise: Request the reported APOE RNA (% control) Spinal Cord associated with 1785598: modified oligonucleotide complementary to human APOE RNA (k[5mC]*kT*kT*dG[ms]dG[ms]dT[ms]dG[ms]dA[ms]dA[ms]dT*d[5mC]*dT*dT*dT*dA*dT[ms]kT*kA*dA[ms]kA; antisense) [compound 1785598]
Key: 24

Exercise: And 1693046: 5-10-5 MOE gapmer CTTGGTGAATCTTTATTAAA, linkages ssssszzzzzsssssssss (antisense e[5mC]*eT*eT*eG*eG*dT[ms]dG[ms]dA[ms]dA[ms]dT[ms]d[5mC]*dT*dT*dT*dA*eT*eT*eA*eA*eA) [compound 1693046] ?
Key: 80

Exercise: And 1693068: 5-10-5 MOE gapmer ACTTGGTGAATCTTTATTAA, linkages sssossszzzszsssssss (antisense eA*e[5mC]*eT*eTeG*dG*dT*dG[ms]dA[ms]dA[ms]dT*d[5mC][ms]dT*dT*dT*eA*eT*eT*eA*eA) [compound 1693068] ?
Key: 72

Exercise: And 1778112 (eA*e[5mC]eTeTeGkG*dT*dG[ms]dA[ms]dA*dT*d[5mC]*dT*dT*dT*dA[ms]eTeT*eA*eA; antisense) [Compound 1778112] ?
Key: 25

// provenance: patent US20250353873A1
